Source listed as ChEMBL document CHEMBL1201862.

Tested on: OVCAR-4
Test: NCI tumour cell line growth inhibition, 48 h
Activity calls are given as the source filed them. No stated cut-off is given here; in the data, active = GI50 up to about 1.1 µM and inactive = higher.
# maps each entry to its GI50

Cc1cc(N(CCC#N)CCC#N)ccc1/C=C(\NC(=O)/C=C/c1ccccc1)C(=O)Nc1ccc(Cl)cc1 : 30.5 µM (inactive)
Nc1ccc(-c2nc3ccccc3s2)cc1I : > 7.93 µM (inactive)

Task: # lookup: GI50 of O=c1cc(/C=C/c2ccccc2)c2ccc(O/C(=C\c3ccccc3)c3nc4ccccc4c(=O)o3)cc2o1
Output: 27.2 µM (inactive)

Task: # lookup: GI50 of CC(=NNC(=S)Nc1cccc(C)c1)c1cccc(C(C)=NNC(=S)Nc2cccc(C)c2)n1
Output: 9.95 µM (inactive)

Task: # lookup: GI50 of C[C@]12CC[C@H](OC3CCCCO3)CC1=CC[C@@H]1C2CC[C@]2(C)/C(=N/O)CCC12 (stereo not given in full)
Output: 16.4 µM (inactive)

Task: # lookup: GI50 of CN(C)CCN(C)CCC(=O)/C=C/c1ccccc1
Output: 38.2 µM (inactive)

Task: # lookup: GI50 of CNc1ccccc1S(=O)(=O)c1ccccc1[N+](=O)[O-]
Output: 27.2 µM (inactive)

Task: # lookup: GI50 of CN(C)c1n/c(=N/Cc2ccccn2)ss1
Output: > 7.26 µM (inactive)

Task: # lookup: GI50 of CC(=O)NNC(=O)C1CCCCN1 (stereo not given)
Output: > 100 µM (inactive)

Task: # lookup: GI50 of CC(=O)OCC1OC(n2c(-c3ccc(C)cc3)cc(-c3ccccc3)c(C#N)c2=O)C(OC(C)=O)C(OC(C)=O)C1OC(C)=O (stereo not given)
Output: > 100 µM (inactive)
